# System: PPARa:RXRa (NR concentration 270 nM, RXRa partner concentration 90 nM)
# experiment description: PBM binding z-score (relative to random genomic background probes); higher = stronger binding; sequences stand for … in GC…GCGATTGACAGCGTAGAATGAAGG
The following ranges of PBM binding z-score define the classes used here: lowest: < 2; middle: ≥ 2 and < 4; highest: ≥ 4

Record excerpt, results attached:
seq string	group
AATACTGGGTCACTAGGCCAGAGTAGGTACGAAT	highest
CCTACTGGGCCAAAGGTCATTGAATCCAATGCTC	highest
ACTTACGGGCCAACGAGGTTATAGCACGCGTATA	lowest

[in] Band of CAAACTAGGTCAAAGGTCAAAGTGGAGCCAACCA ?
[out] highest
